Cited source for all entries: paper PMC4277828

assay_name: Steady-state plasma pharmacokinetics of lopinavir given with two rifabutin doses (LCMS/MS, non-compartmental analysis)
settings: human, plasma, oral, AUC0–12, RBT 150 mg daily plus LPV/r (400/100 mg); Median (Interquartile range), 14 patients
value_type: AUC(0-t) (µg·h/mL)
Write down the numeric answer in µg·h/mL and omit the unit.

Qu. State the recorded AUC(0-t) for this entry: Cc1cccc(C)c1OCC(=O)N[C@@H](Cc1ccccc1)[C@@H](O)C[C@H](Cc1ccccc1)NC(=O)[C@H](C(C)C)N1CCCNC1=O
Ans. 160

* * *

assay_name: Steady-state plasma pharmacokinetics of lopinavir given with two rifabutin doses (LCMS/MS, non-compartmental analysis)
settings: human, plasma, oral, AUC0–12, RBT 150 mg tiw plus LPV/r (400/100 mg); Median (Interquartile range), 14 patients
value_type: AUC(0-t) (µg·h/mL)
Write down the numeric answer in µg·h/mL and omit the unit.

Qu. State the recorded AUC(0-t) for this entry: Cc1cccc(C)c1OCC(=O)N[C@@H](Cc1ccccc1)[C@@H](O)C[C@H](Cc1ccccc1)NC(=O)[C@H](C(C)C)N1CCCNC1=O
Ans. 140

* * *

assay_name: Steady-state plasma pharmacokinetics of rifabutin and 25-O-desacetylrifabutin with and without LPV/r-based ART (three-period crossover, LC/MS/MS, non-compartmental analysis)
settings: human, plasma, oral, 150 mg, AUC0–48, Rifabutin 150 mg daily plus LPV/r; calculated by 2X AUC0–24; median (interquartile range), n = 14
value_type: AUC(0-t) (ng·h/mL)
Write down the numeric answer in ng·h/mL and omit the unit.

Qu. State the recorded AUC(0-t) for this entry: CO[C@H]1/C=C/O[C@@]2(C)Oc3c(C)c(O)c4c(c3C2=O)C2=NC3(CCN(CC(C)C)CC3)NC2=C(NC(=O)/C(C)=C\C=C\[C@H](C)[C@H](O)[C@@H](C)[C@@H](O)[C@@H](C)[C@H](OC(C)=O)[C@@H]1C)C4=O [Rifabutin, rifabutin]
Ans. 9530

* * *

assay_name: Steady-state plasma pharmacokinetics of rifabutin and 25-O-desacetylrifabutin with and without LPV/r-based ART (three-period crossover, LC/MS/MS, non-compartmental analysis)
settings: human, plasma, oral, 300 mg, AUC0–24, Rifabutin 300 mg daily without LPV/r, steady state; median (interquartile range), n = 14
value_type: AUC(0-t) (ng·h/mL)
Write down the numeric answer in ng·h/mL and omit the unit.

Qu. State the recorded AUC(0-t) for this entry: CO[C@H]1/C=C/O[C@@]2(C)Oc3c(C)c(O)c4c(c3C2=O)C2=NC3(CCN(CC(C)C)CC3)NC2=C(NC(=O)/C(C)=C\C=C\[C@H](C)[C@H](O)[C@@H](C)[C@@H](O)[C@@H](C)[C@H](OC(C)=O)[C@@H]1C)C4=O [Rifabutin, rifabutin]
Ans. 3050

* * *

assay_name: Steady-state plasma pharmacokinetics of rifabutin and 25-O-desacetylrifabutin with and without LPV/r-based ART (three-period crossover, LC/MS/MS, non-compartmental analysis)
settings: human, plasma, oral, 150 mg, AUC0–24, Rifabutin 150 mg tiw plus LPV/r, steady state; median (interquartile range), n = 14
value_type: AUC(0-t) (µg·h/mL)
Write down the numeric answer in µg·h/mL and omit the unit.

Qu. State the recorded AUC(0-t) for this entry: CO[C@H]1/C=C/O[C@@]2(C)Oc3c(C)c(O)c4c(c3C2=O)C2=NC3(CCN(CC(C)C)CC3)NC2=C(NC(=O)/C(C)=C\C=C\[C@H](C)[C@H](O)[C@@H](C)[C@@H](O)[C@@H](C)[C@H](OC(C)=O)[C@@H]1C)C4=O
Ans. 2.31

* * *

assay_name: clinical
settings: human, plasma, oral, 300 mg
value_type: Cmax (ng/mL)
Write down the numeric answer in ng/mL and omit the unit.

Qu. State the recorded Cmax for this entry: CO[C@H]1/C=C/O[C@@]2(C)Oc3c(C)c(O)c4c(c3C2=O)C2=NC3(CCN(CC(C)C)CC3)NC2=C(NC(=O)/C(C)=C\C=C\[C@H](C)[C@H](O)[C@@H](C)[C@@H](O)[C@@H](C)[C@H](OC(C)=O)[C@@H]1C)C4=O
Ans. 292
